- Test system: TK-10
- procedure_details: NCI tumour cell line growth inhibition, 48 h
Activity calls are given as the source filed them. Cut-off read from the data, not from the text of the source: active = GI50 up to about 1.1 µM and inactive = higher.
Entries and their GI50

**Q:** So what does the record say about GI50 for `CCOC(=O)c1cn(C)nc1N/C(C)=C\C(=O)c1ccccc1` ?
**A:** > 100 µM (inactive)

**Q:** Another compound to check: `Oc1cc(-c2cccc(Cl)c2)nc2ncccc12`
**A:** 24.3 µM (inactive)

**Q:** Another compound to check: CN1CCCC2[C@@H]3CCC4=C(O)C(=O)CC[C@]4(C)C3CC[C@@]21C (stereo not given in full)
**A:** > 100 µM (inactive)

**Q:** Another compound to check: C=C1CCC(CC[C@@H]2CC[C@]3(OC2)O[C@@]2(O)CC[C@]3(C)OC2(C)C)C(C)(C)[C@H]1C/C=C1/C(=O)OC[C@@H]1O (stereo not given in full)
**A:** 6.12 µM (inactive)

**Q:** Another compound to check: COc1cc([C@@H]2c3cc4c(cc3[C@@H](NC(=O)c3cccc([N+](=O)[O-])c3)C3COC(=O)[C@@H]32)OCO4)cc(OC)c1O (stereo not given in full)
**A:** 2.25 µM (inactive)

**Q:** Another compound to check: CC(=O)NC1=C(C)C(=O)c2c(nc3n2CCC3OC(=O)CCl)C1=O (stereo not given)
**A:** 21 µM (inactive)

**Q:** Another compound to check: `CCN1CCCCC(=N\O)/C(=N/O)CCCC1`
**A:** > 100 µM (inactive)

**Q:** Another compound to check: Cc1ccccc1C(=O)C1CCCCC1O (stereo not given)
**A:** > 100 µM (inactive)

Others:
**Q:** So what does the record say about GI50 for COC(=O)C1CC(=O)O[C@H]1c1ccc(OC)c(OC)c1 (stereo not given in full) ?
**A:** > 100 µM (inactive)

**Q:** Another compound to check: O=S1(=O)c2ccccc2N=C(c2ccccc2Cl)CC1c1ccc(F)cc1 (stereo not given)
**A:** 22.5 µM (inactive)

----------
- System: MDA-MB-435
- procedure_details: NCI tumour cell line growth inhibition, 48 h
Active and inactive are the calls of the source. No stated cut-off is given here; in the data, active = GI50 up to about 1.1 µM and inactive = higher.
# valid calls are true (1) = active, false (0) = inactive; nothing else

**Q:** Given `CC(C)[C@@H]1NC(=O)[C@H]2N=C(O[C@@H]2C)[C@@H]2CCCN2C(=O)[C@H](Cc2ccccc2)NC(=O)[C@@H]2CSC(=N2)[C@@H](Cc2ccccc2)NC(=O)[C@@H]2CSC1=N2` , state the outcome it received in this test.
**A:** false (0)

**Q:** Another compound to check: `CCOC(=O)c1cccc(NC(=O)CBr)c1`
**A:** true (1)

Others:
**Q:** Given `COc1ccc2nc3c(nc2c1)C(C)(C)C=C3c1ccc(Br)cc1` , state the outcome it received in this test.
**A:** false (0)

**Q:** Another compound to check: `O=C(O)C[n+]1cn(NC(=O)Cc2ccccc2)cn1`
**A:** false (0)

**Q:** Another compound to check: `CCN(CC)CCOC(=O)Cc1cccc2c(=O)cc(-c3ccccc3)oc12`
**A:** false (0)

**Q:** Another compound to check: `O=C(ON=c1c2ccccc2ccc2ccccc12)c1ccccc1`
**A:** false (0)

----------
- System: SF-295
- procedure_details: NCI tumour cell line growth inhibition, 48 h
Activity calls are given as the source filed them. No stated cut-off is given here; in the data, active = GI50 up to about 1.1 µM and inactive = higher.
# valid calls are active, inactive; nothing else

Past entries and their recorded results:
**Q:** Given `CCNC(=S)NNC(=O)c1ccccc1Nc1ccccc1C(=O)NNC(=S)NCC` , state the outcome it received in this test.
**A:** inactive

**Q:** Another compound to check: `O=S(=O)(/C=C/c1ccc(Cl)cc1Cl)Cc1ccccc1CS(=O)(=O)/C=C/c1ccc(Cl)cc1Cl`
**A:** inactive

**Q:** Another compound to check: `CN(C)C(=N)NC(N)=S`
**A:** inactive

**Q:** Another compound to check: `CC(C)/C(Cl)=N/OC(=O)Nc1ccc(Cl)c(Cl)c1`
**A:** inactive

**Q:** Another compound to check: `O=C1/C(=C/c2ccc([N+](=O)[O-])cc2)Oc2cc(O)ccc21`
**A:** inactive

**Q:** Another compound to check: CC1(c2ccc(F)cc2)CC(c2ccc(F)cc2)=C(C#N)C(=C(C#N)C#N)N1 (stereo not given)
**A:** inactive

Others:
**Q:** Given `CSc1nc2c(=O)n(-c3ccccc3)c(=S)n(-c3ccccc3)c2s1` , state the outcome it received in this test.
**A:** inactive

**Q:** Another compound to check: O=C(O)c1c(CC(Cc2ccc3c(c2)CCCC3)C(=O)O)ccc2c1CCCC2 (stereo not given)
**A:** inactive

**Q:** Another compound to check: CC(c1ccccc1)N1CC(C)(c2ccccc2)N(O)C(c2ccccc2)C1C (stereo not given)
**A:** inactive

----------
- Tested on: LOX IMVI
- procedure_details: NCI tumour cell line growth inhibition, 48 h
The source made the active and inactive calls. No stated cut-off is given here; in the data, active = GI50 up to about 1.1 µM and inactive = higher.
# valid calls are 1 for active, 0 for inactive; nothing else

Past entries and their recorded results:
**Q:** Given `COc1nc(C)nc2sc3c(c12)CCCC3` , state the outcome it received in this test.
**A:** 0

**Q:** Another molecule to check: c1ccc(C2[C@@H]3CCCc4ccccc4C3=NN2c2ccccc2)cc1 (some centres not stated)
**A:** 0

**Q:** Another molecule to check: `Cn1cnc([N+](=O)[O-])c1SCC(=O)O`
**A:** 0

**Q:** Another molecule to check: Cc1ccccc1C(=O)C1CCCCC1O (configuration not stated)
**A:** 0

**Q:** Another molecule to check: CC(C)C(C/C=C1/CC(CO)(COC(=O)CC(C(C)C)C(C)C)OC1=O)C(C)C (configuration not stated)
**A:** 0

**Q:** Another molecule to check: CCCCCCCCCCCCCCCCOP(=O)(O)OCC(N)C(=O)O (configuration not stated)
**A:** 0

**Q:** Another molecule to check: `Cc1ccc2c(=O)[nH]sc2c1`
**A:** 0

**Q:** Another molecule to check: `CC(C)Cc1cnc(CC(C)C)c(=O)[nH]1`
**A:** 0

**Q:** Another molecule to check: `C[n+]1c2ccc(Cl)cc2nc2cc(-c3ccccc3)ccc21`
**A:** 0

**Q:** Another molecule to check: `CC(C)c1ccc2c(c1)/C(=C1/Nc3ccccc3/C1=N/O)C(=O)N2`
**A:** 0

Others:
**Q:** Given `O=C(O)C[C@@H](Cl)[C@H](NC(=O)OCc1ccccc1)C(=O)O` , state the outcome it received in this test.
**A:** 0

**Q:** Another molecule to check: `CCOC(=O)CCCSCCCC(=O)CCCSCCCC(=O)OCC`
**A:** 0

**Q:** Another molecule to check: `N=C(N)N/N=C/c1c(-c2ccc(Cl)cc2)nc2sccn12`
**A:** 0

----------
- Tested on: SK-MEL-5
- procedure_details: NCI tumour cell line growth inhibition, 48 h
Calls of active or inactive are those of the source. Rule as the data show it: active = GI50 up to about 1.1 µM and inactive = higher.
Entries and their GI50

**Q:** So what does the record say about GI50 for `ON[C@@H]1C=C[C@H](n2cnc3c(NC4CC4)ncnc32)C1` ?
**A:** > 100 µM (inactive)

Others:
**Q:** So what does the record say about GI50 for `Nc1c(S(=O)(=O)c2ccccc2)c2nc3ccccc3nc2n2c1nc1ccccc12` ?
**A:** 32.4 µM (inactive)

**Q:** Another molecule to check: COC(=O)C(=O)C(C(=O)C(=O)Nc1ccccc1C(=O)OC)c1nc2ccc(C(=O)c3ccccc3)cc2nc1O (stereo not given)
**A:** 53.7 µM (inactive)

**Q:** Another molecule to check: CCOC(=O)C12CCCC1(O)N(NC(=O)c1cccc(Cl)c1)C(C)=C2C(=O)OC (stereo not given)
**A:** > 100 µM (inactive)

----------
Entries and their GI50
- System: DU-145
- procedure_details: NCI tumour cell line growth inhibition, 48 h
The source made the active and inactive calls. Cut-off read from the data, not from the text of the source: active = GI50 up to about 1.1 µM and inactive = higher.

**Q:** So what does the record say about GI50 for `Cc1[nH]c2ncn3ncnc3c2c1Cc1ccccc1` ?
**A:** > 100 µM (inactive)

Then this compound:
**Q:** So what does the record say about GI50 for O=C(O)C1CCCCN1CCc1c[nH]c2ccccc12 (stereo not given) ?
**A:** > 100 µM (inactive)

----------
Entries and their GI50
- Test system: UACC-62
- procedure_details: NCI tumour cell line growth inhibition, 48 h
The source made the active and inactive calls. Rule as the data show it: active = GI50 up to about 1.1 µM and inactive = higher.

Below are worked cases with known answers.
**Q:** So what does the record say about GI50 for `Nc1ccc(Sc2c3ccccc3nc3ccccc23)cc1` ?
**A:** 15.2 µM (inactive)

**Q:** Another compound to check: `CCNC(=O)Nc1cccc(C)n1`
**A:** 99.1 µM (inactive)

**Q:** Another compound to check: `Cc1ccccc1-c1nc2c(N)nc(N)nc2nc1N`
**A:** 4.91 µM (inactive)

**Q:** Another compound to check: CCOC(OC1=C(C#N)CCC1)C(CC)[Se]c1ccccc1 (stereo not drawn)
**A:** 19 µM (inactive)

**Q:** Another compound to check: CC1(C)[C@@H]2C[C@H]1c1cnc(-c3ccccn3)cc1C2CCCCC[C@@H]1c2cc(-c3ccccn3)ncc2[C@@H]2C[C@H]1C2(C)C (stereo partly drawn)
**A:** 0.946 µM (active)

Others:
**Q:** So what does the record say about GI50 for `CC(C)(C)COS(=O)OCC(C)(C)C` ?
**A:** > 100 µM (inactive)

**Q:** Another compound to check: CC(C)C[C@H](NC(=O)[C@H](Cc1ccccc1)NC(=O)c1cnccn1)B(O)O [BORTEZOMIB]
**A:** < 0.01 µM (active)

**Q:** Another compound to check: `CCNC(=S)NNC(=O)c1ccccc1Nc1ccccc1C(=O)NNC(=S)NCC`
**A:** > 100 µM (inactive)

**Q:** Another compound to check: `COC(=O)c1cccn1C(=O)n1cccc1`
**A:** > 100 µM (inactive)

**Q:** Another compound to check: `CN(CCc1ccccn1)c1ccc2c(c1)C(=O)c1ccccc1-2`
**A:** 46.1 µM (inactive)
